# System Name: FGFR2 (Homo sapiens)
# Sequence (P21802 22-821): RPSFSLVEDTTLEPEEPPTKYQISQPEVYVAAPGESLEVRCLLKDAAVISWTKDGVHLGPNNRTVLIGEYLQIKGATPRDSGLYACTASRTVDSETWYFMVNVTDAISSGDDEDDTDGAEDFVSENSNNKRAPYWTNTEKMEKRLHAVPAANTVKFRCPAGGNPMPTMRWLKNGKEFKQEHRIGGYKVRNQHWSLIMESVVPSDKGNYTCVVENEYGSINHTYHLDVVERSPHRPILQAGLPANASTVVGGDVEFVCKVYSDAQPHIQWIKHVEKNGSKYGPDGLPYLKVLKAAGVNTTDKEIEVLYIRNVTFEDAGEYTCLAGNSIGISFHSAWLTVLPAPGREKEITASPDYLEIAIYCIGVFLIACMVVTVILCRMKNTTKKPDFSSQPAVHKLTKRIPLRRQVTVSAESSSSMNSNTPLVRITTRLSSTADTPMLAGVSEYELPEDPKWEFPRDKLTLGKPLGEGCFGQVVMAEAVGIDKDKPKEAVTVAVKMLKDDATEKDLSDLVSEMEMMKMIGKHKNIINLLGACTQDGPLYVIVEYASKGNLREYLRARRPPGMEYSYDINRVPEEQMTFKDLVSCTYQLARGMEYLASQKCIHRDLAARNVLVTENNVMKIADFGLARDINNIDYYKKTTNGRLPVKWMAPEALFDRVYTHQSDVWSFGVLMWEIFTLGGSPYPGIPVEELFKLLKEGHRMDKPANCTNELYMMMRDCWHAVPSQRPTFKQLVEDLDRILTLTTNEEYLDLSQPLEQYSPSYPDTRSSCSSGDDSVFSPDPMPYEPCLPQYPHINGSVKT
# Measurement Notes: FRET-based Z′-Lyte kinase assay
# Format: biochemical
Experimental Readout: IC50 (nM)
# unit: nM | format: bare number

Entry Cc1ccc(C(=O)Nc2ccc(CN3CCN(C)CC3)c(C(F)(F)F)c2)cc1C#Cc1cnc2[nH]ncc2c1 needs its IC50 filled in; supply it. 2.77

---

# System Name: FGFR3‐V555 M (Homo sapiens, UniProt P22607, V555M)
# Sequence (P22607 23-806 V555M): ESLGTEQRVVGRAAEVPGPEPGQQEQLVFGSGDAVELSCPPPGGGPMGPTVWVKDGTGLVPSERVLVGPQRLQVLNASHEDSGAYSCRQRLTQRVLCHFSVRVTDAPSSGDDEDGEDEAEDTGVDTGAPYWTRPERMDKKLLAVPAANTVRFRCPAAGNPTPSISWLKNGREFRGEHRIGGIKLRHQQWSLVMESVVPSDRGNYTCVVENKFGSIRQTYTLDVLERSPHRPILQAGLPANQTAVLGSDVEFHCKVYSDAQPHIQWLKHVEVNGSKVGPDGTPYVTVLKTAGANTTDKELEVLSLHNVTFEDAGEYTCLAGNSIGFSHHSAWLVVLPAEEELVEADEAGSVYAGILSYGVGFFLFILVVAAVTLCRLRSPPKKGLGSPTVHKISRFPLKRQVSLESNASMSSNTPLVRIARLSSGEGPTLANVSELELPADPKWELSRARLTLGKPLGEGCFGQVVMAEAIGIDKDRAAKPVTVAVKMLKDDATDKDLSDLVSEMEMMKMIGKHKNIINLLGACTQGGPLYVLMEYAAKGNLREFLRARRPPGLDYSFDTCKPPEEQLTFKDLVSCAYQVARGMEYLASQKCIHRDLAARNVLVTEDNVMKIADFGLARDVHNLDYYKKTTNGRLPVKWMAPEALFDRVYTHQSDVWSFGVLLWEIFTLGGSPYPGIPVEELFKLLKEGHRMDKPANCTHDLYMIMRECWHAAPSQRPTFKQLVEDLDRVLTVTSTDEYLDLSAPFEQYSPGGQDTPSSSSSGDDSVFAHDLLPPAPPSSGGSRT
# Measurement Notes: KINOMEscan binding affinity assay
Experimental Readout: Kd (nM)
Reply with just the number (in nM).

Return reported Kd. Input compound: Cc1ccc(C(=O)Nc2ccc(CN3CCN(C)CC3)c(C(F)(F)F)c2)cc1C#Cc1cnc2[nH]ncc2c1 [GZD824] 19.5
